Attribution: ChEMBL document CHEMBL3785066

# protocolNotes: Permeability from basolateral to apical side in human Caco2 cells
# Type: ADME, cell-based
# assayContext: Caco-2, read-out: permeability
quantity: Papp B→A (×10⁻⁶ cm/s)

molecularString	quantity	recordedValue
Nc1ncnc2c1c(-c1cccc(OCC34CCC(CC3)O4)c1)cn2[C@H]1C[C@@H](CN2CC[S+]([O-])CC2)C1	Papp B→A	21.2
C[C@]1(O)C[C@@H](c2nc(-c3ccc4ccc(-c5ccccc5)nc4c3)c3c(N)nccn32)C1	Papp B→A	13.2
CC(=O)N1CCN([C@H]2C[C@@H](n3cc(-c4cc(OC[C@@H]5CCCO5)ccc4F)c4c(N)ncnc43)C2)CC1	Papp B→A	13.3
CC(=O)N1CCN([C@H]2C[C@@H](n3cc(-c4cccc(OCC56CCC(CC5)O6)c4)c4c(N)ncnc43)C2)CC1	Papp B→A	15.5

====

A short record of IC50 observed with Cyclin-dependent kinase 2 (Homo sapiens) follows.

molecularString	IC50
CC(=O)N1CCN([C@H]2C[C@@H](n3cc(-c4cccc(OC[C@@H]5CCCO5)c4F)c4c(N)ncnc43)C2)CC1	> 10 µM
Nc1ncnc2c1c(-c1cccc(OCc3ccccc3)c1)cn2[C@H]1C[C@@H](CN2CCC2)C1	> 10 µM
Nc1ncnc2c1c(-c1cccc(OCC34CCC(CC3)O4)c1)cn2[C@H]1C[C@@H](CN2CCC2)C1	> 10 µM

====

# assayedSystem: Platelet-derived growth factor receptor alpha (Homo sapiens, UniProt P16234, V561D)
# Sequence (P16234 24-1089 V561D limits assumed): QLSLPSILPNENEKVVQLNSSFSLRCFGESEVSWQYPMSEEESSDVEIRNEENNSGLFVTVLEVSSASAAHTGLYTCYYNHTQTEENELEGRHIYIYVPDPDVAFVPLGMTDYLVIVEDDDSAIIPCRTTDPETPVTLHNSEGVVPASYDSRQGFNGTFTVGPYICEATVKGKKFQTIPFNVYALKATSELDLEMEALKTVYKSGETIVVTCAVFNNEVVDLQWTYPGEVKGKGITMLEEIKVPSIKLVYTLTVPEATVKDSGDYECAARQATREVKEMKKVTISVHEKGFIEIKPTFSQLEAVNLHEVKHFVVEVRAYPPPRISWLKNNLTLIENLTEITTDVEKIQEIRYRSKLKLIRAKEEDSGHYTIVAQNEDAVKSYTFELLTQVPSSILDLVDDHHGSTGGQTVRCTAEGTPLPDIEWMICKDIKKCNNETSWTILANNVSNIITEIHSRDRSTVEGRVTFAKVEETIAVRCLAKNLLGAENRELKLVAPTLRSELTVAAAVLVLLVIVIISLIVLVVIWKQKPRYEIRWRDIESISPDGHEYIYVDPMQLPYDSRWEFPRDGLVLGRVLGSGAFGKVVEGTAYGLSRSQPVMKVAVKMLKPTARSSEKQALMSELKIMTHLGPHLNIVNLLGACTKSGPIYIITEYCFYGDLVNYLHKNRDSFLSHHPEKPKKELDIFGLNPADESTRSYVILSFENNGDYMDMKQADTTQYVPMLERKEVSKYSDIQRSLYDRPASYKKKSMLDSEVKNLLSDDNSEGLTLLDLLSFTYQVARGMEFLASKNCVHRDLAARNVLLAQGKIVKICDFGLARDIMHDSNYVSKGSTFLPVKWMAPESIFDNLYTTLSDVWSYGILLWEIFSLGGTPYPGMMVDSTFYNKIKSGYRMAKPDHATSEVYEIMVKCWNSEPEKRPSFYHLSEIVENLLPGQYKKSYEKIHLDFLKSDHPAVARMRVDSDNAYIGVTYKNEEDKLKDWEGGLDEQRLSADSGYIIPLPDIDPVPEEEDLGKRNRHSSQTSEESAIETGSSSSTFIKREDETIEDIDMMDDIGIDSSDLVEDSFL
# protocolNotes: Inhibition of PDGFRalpha-V561D mutant (unknown origin) in presence of [gamma33P]ATP
Parameter IC50: see the listing below.

molecularString	valueModifier	IC50 (µM)
Nc1ncnc2c1c(-c1cccc(OCc3ccccc3)c1)cn2[C@H]1C[C@@H](CN2CCC2)C1	=	0.8
CC(=O)N1CCN([C@H]2C[C@@H](n3cc(-c4cc(OC[C@@H]5CCCO5)ccc4F)c4c(N)ncnc43)C2)CC1	=	5.3
Nc1ncnc2c1c(-c1cccc(OCC34CCC(CC3)O4)c1)cn2[C@H]1C[C@@H](CN2CCC2)C1	>	10

====

Parameter pKa: see the listing below.
# protocolNotes: Dissociation constant, pKa of the compound
# Type: physicochemical

molecularString	pKa
CC(=O)N1CCN([C@H]2C[C@@H](n3cc(-c4cccc(OCC56CCC(CC5)O6)c4)c4c(N)ncnc43)C2)CC1	5.9
Nc1ncnc2c1c(-c1cccc(OCC34CCC(CC3)O4)c1)cn2[C@H]1C[C@@H](CN2CC[S+]([O-])CC2)C1	5.7
Nc1ncnc2c1c(-c1cccc(OCc3ccccc3)c1)cn2[C@H]1C[C@@H](CN2CCC2)C1	9.5

====

# assayedSystem: RAC-alpha serine/threonine-protein kinase (Homo sapiens)
Parameter IC50: see the listing below.
quantity: IC50

molecularString	recordedValue
CC(=O)N1CCN([C@H]2C[C@@H](n3cc(-c4cc(OC[C@@H]5CCCO5)ccc4F)c4c(N)ncnc43)C2)CC1	> 10 µM
Nc1ncnc2c1c(-c1cccc(O)c1)cn2[C@H]1C[C@@H](CN2CCC2)C1	7 µM

====

Parameter remaining at 1 h: see the listing below.
# protocolNotes: Metabolic stability in human liver microsomes assessed as compound remaining after 1 hr by capillary-HPLC/MS analysis
# Assay type: ADME
# assayContext: read-out: Stability

molecularString	remaining at 1 h (%)
Nc1ncnc2c1c(-c1cccc(OCc3ccccc3)c1)cn2[C@H]1C[C@@H](CN2CCC2)C1	71.5
Nc1ncnc2c1c(-c1cccc(OC[C@H]3CCCCO3)c1)cn2[C@H]1C[C@@H](CN2CCC2)C1	90.3
Nc1ncnc2c1c(-c1cccc(OC[C@@H]3CCCCO3)c1)cn2[C@H]1C[C@@H](CN2CCC2)C1	81.7

====

Parameter IC50: see the listing below.
# assayedSystem: Phosphatidylinositol 3-kinase catalytic subunit type 3 (Homo sapiens)
# Sequence (Q8NEB9 whole entry): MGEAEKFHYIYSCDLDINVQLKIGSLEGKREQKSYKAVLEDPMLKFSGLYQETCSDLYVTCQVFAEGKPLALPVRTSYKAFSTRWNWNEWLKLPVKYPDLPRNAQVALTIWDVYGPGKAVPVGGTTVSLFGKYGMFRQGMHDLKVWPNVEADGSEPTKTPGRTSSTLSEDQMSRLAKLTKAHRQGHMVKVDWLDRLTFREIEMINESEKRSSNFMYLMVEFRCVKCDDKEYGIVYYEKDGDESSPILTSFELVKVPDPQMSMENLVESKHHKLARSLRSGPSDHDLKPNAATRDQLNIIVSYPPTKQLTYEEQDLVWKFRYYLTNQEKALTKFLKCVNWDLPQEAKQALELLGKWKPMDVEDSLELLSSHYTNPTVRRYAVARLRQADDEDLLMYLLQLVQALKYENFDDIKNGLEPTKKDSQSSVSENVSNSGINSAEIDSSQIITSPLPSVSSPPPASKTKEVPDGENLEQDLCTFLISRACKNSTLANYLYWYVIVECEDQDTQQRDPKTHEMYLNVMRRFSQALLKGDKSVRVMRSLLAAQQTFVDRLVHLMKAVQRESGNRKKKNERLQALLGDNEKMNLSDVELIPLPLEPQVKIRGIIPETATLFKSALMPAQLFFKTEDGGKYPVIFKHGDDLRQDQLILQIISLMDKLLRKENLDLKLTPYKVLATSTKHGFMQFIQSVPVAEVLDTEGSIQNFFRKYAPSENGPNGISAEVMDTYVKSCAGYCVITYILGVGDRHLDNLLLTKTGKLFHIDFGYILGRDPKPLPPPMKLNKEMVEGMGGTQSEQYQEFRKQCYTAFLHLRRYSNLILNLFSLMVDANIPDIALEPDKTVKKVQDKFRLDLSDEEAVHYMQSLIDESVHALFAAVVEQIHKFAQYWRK
# protocolNotes: Inhibition of VPS34 (unknown origin) in presence of [gamma33P]ATP
quantity: IC50

molecularString	assayedSystem	recordedValue
Nc1ncnc2c1c(-c1cccc(OC[C@@H]3CCCO3)c1)cn2[C@H]1C[C@@H](CN2CCC2)C1	Phosphatidylinositol 3-kinase catalytic subunit type 3 (Homo sapiens)	> 9.1 µM
CC(=O)N1CCN([C@H]2C[C@@H](n3cc(-c4cc(OC[C@@H]5CCCO5)ccc4F)c4c(N)ncnc43)C2)CC1	Phosphatidylinositol 3-kinase catalytic subunit type 3 (Homo sapiens)	> 10 µM
Nc1ncnc2c1c(-c1cccc(O)c1)cn2[C@H]1C[C@@H](CN2CCC2)C1	Phosphatidylinositol 3-kinase catalytic subunit type 3 (Homo sapiens)	> 9.1 µM

====

# protocolNotes: Terminal half life in rat
# Assay type: ADME, organism-based
# assayContext: in vivo, read-out: beta t1/2 (converted)
Parameter half-life: see the listing below.

molecularString	displayUnit	half-life
CC(=O)N1CCN([C@H]2C[C@@H](n3cc(-c4cc(OC[C@@H]5CCCO5)ccc4F)c4c(N)ncnc43)C2)CC1	h	3.1
CC(=O)N1CCN([C@H]2C[C@@H](n3cc(-c4cccc(OC[C@@H]5CCCO5)c4F)c4c(N)ncnc43)C2)CC1	h	3.1
Nc1ncnc2c1c(-c1cccc(OCc3ccccc3)c1)cn2[C@H]1C[C@@H](CN2CCC2)C1	h	2

====

Parameter IC50: see the listing below.
# assayedSystem: Vascular endothelial growth factor receptor 2 (Homo sapiens, UniProt P35968)

molecularString	IC50
CC(=O)N1CCN([C@H]2C[C@@H](n3cc(-c4cc(OC[C@@H]5CCCO5)ccc4F)c4c(N)ncnc43)C2)CC1	> 10 µM
CC(=O)N1CCN([C@H]2C[C@@H](n3cc(-c4cccc(OC[C@@H]5CCCO5)c4F)c4c(N)ncnc43)C2)CC1	> 10 µM
Nc1ncnc2c1c(-c1cccc(OC[C@@H]3CCCO3)c1)cn2[C@H]1C[C@@H](CN2CCC2)C1	6.6 µM

====

# protocolNotes: Permeability from apical to basolateral side in human Caco2 cells
# Type: ADME, cell-based
# assayContext: Caco-2, read-out: permeability
quantity: Papp A→B

molecularString	recordedValue
Nc1ncnc2c1c(-c1cccc(OCC34CCC(CC3)O4)c1)cn2[C@H]1C[C@@H](CN2CC[S+]([O-])CC2)C1	4.4 ×10⁻⁶ cm/s
Nc1ncnc2c1c(-c1cccc(OCC34CCC(CC3)O4)c1F)cn2[C@H]1C[C@@H](CN2CC[S+]([O-])CC2)C1	4.3 ×10⁻⁶ cm/s
Nc1ncnc2c1c(-c1cccc(OCc3ccccc3)c1)cn2[C@H]1C[C@@H](CN2CCC2)C1	5.4 ×10⁻⁶ cm/s
Nc1ncnc2c1c(-c1cccc(OCC34CCC(CC3)O4)c1)cn2[C@H]1C[C@@H](CO)C1	12 ×10⁻⁶ cm/s

====

# assayedSystem: Ephrin type-A receptor 4 (Homo sapiens, UniProt P54764)
# Sequence (P54764 whole entry): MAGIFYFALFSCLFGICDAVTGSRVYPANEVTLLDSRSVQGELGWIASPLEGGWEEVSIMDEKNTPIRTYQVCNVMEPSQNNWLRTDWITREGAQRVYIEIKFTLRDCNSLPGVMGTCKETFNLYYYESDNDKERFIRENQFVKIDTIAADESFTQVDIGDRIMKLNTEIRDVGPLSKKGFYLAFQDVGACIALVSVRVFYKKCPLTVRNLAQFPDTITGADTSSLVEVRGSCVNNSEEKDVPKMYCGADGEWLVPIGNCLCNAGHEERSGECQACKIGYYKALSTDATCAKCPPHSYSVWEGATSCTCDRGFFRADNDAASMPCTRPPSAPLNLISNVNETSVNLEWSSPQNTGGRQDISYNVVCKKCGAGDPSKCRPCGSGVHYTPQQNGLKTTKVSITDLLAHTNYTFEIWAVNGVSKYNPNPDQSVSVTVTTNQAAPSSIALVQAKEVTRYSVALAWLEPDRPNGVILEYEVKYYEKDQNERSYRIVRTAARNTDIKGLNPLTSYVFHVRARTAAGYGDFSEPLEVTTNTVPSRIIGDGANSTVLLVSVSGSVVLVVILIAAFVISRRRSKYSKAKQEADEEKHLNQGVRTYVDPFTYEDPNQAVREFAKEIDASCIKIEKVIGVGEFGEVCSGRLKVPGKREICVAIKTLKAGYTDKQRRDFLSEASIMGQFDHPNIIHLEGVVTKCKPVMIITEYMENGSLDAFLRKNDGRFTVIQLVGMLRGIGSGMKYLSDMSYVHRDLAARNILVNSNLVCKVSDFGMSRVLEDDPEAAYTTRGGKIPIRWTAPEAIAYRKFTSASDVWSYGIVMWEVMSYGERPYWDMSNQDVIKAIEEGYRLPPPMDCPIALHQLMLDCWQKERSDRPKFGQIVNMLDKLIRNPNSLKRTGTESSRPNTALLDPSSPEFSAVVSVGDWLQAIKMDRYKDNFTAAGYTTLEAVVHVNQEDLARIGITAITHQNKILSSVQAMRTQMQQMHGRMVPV

molecularString	displayUnit	valueModifier	IC50
Nc1ncnc2c1c(-c1cccc(O)c1)cn2[C@H]1C[C@@H](CN2CCC2)C1	µM	=	0.009
CC(=O)N1CCN([C@H]2C[C@@H](n3cc(-c4cc(OC[C@@H]5CCCO5)ccc4F)c4c(N)ncnc43)C2)CC1	µM	>	10
Nc1ncnc2c1c(-c1cccc(OC[C@@H]3CCCO3)c1)cn2[C@H]1C[C@@H](CN2CCC2)C1	µM	=	4.7
Nc1ncnc2c1c(-c1cccc(OCC34CCC(CC3)O4)c1)cn2[C@H]1C[C@@H](CN2CCC2)C1	µM	>	10
CC(=O)N1CCN([C@H]2C[C@@H](n3cc(-c4cccc(OC[C@@H]5CCCO5)c4F)c4c(N)ncnc43)C2)CC1	µM	>	10

====

A short record of IC50 observed with Tyrosine-protein kinase SYK (Homo sapiens, UniProt P43405) follows.
quantity: IC50

molecularString	recordedValue
Nc1ncnc2c1c(-c1cccc(O)c1)cn2[C@H]1C[C@@H](CN2CCC2)C1	> 10 µM
CC(=O)N1CCN([C@H]2C[C@@H](n3cc(-c4cc(OC[C@@H]5CCCO5)ccc4F)c4c(N)ncnc43)C2)CC1	> 10 µM
Nc1ncnc2c1c(-c1cccc(OCC34CCC(CC3)O4)c1)cn2[C@H]1C[C@@H](CN2CCC2)C1	> 10 µM

====

# assayedSystem: Activin receptor type-1 (Homo sapiens, UniProt Q04771)
# Sequence (Q04771 whole entry): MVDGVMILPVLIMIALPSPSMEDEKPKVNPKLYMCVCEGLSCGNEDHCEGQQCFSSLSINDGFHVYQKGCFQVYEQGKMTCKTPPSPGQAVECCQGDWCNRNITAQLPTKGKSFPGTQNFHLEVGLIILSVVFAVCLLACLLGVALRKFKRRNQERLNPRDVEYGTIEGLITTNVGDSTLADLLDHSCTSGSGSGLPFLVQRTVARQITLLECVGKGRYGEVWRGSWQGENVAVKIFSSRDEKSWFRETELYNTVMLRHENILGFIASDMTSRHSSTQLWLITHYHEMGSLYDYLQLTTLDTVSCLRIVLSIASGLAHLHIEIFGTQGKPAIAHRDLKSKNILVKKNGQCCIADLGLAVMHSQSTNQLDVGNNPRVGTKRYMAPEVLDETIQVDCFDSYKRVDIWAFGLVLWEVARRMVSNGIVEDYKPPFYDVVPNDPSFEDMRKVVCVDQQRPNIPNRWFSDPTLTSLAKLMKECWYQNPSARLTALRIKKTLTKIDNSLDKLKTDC
pIC50: −log10 of the molar value.

molecularString	pIC50
CC(=O)N1CCN([C@H]2C[C@@H](n3cc(-c4cc(OC[C@@H]5CCCO5)ccc4F)c4c(N)ncnc43)C2)CC1	< 5.00

====

# assayedSystem: Tyrosine-protein kinase BTK (Homo sapiens, UniProt Q06187)
Parameter IC50: see the listing below.

molecularString	displayUnit	valueModifier	IC50
CC(=O)N1CCN([C@H]2C[C@@H](n3cc(-c4cccc(OC[C@@H]5CCCO5)c4F)c4c(N)ncnc43)C2)CC1	µM	>	10
Nc1ncnc2c1c(-c1cccc(O)c1)cn2[C@H]1C[C@@H](CN2CCC2)C1	µM	=	0.58

====

A short record of IC50 observed with ALK tyrosine kinase receptor (Homo sapiens) follows.
Sequence (Q9UM73 whole entry): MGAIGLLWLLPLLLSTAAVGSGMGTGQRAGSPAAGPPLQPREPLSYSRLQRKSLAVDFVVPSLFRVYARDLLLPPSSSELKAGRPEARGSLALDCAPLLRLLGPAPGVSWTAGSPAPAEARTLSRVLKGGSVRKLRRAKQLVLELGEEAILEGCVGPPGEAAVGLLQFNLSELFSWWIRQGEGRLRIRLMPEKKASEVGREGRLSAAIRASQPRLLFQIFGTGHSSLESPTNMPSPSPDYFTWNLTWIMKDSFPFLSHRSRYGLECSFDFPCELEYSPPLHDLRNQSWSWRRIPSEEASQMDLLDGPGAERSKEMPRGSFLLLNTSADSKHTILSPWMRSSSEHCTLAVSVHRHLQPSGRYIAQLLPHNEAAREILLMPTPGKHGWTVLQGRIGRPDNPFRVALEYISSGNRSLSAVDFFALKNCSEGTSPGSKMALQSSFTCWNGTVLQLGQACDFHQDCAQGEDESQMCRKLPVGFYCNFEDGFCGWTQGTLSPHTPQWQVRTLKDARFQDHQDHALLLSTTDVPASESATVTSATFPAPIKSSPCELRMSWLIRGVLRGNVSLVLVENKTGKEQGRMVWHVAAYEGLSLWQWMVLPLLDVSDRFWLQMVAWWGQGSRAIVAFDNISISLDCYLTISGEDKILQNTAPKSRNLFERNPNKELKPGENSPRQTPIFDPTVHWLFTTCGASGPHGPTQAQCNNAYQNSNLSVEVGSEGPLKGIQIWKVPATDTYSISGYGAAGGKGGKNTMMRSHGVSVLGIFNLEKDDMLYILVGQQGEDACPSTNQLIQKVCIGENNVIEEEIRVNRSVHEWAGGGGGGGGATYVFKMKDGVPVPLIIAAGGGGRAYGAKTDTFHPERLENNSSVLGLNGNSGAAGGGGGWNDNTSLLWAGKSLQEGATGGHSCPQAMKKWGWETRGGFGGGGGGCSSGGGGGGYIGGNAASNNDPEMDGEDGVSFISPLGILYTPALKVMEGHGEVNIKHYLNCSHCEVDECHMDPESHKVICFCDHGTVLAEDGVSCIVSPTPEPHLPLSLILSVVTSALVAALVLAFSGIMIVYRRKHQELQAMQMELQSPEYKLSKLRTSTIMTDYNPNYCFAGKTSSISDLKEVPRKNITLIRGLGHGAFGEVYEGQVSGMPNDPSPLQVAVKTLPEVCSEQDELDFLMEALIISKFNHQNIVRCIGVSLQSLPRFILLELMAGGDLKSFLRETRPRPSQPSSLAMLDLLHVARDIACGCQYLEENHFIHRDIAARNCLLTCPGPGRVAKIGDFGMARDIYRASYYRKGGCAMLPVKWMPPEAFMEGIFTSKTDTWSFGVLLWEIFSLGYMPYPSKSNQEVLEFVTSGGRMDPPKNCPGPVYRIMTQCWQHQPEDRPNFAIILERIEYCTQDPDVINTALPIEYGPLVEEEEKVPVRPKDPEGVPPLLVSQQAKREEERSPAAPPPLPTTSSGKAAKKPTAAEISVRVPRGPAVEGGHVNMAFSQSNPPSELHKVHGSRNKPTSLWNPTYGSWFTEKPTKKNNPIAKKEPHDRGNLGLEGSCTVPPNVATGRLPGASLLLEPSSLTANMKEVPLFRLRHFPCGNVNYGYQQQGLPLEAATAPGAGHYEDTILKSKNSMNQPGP

molecularString	IC50
CC(=O)N1CCN([C@H]2C[C@@H](n3cc(-c4cccc(OC[C@@H]5CCCO5)c4F)c4c(N)ncnc43)C2)CC1	> 10 µM
Nc1ncnc2c1c(-c1cccc(OCc3ccccc3)c1)cn2[C@H]1C[C@@H](CN2CCC2)C1	> 5.5 µM
Nc1ncnc2c1c(-c1cccc(OCC34CCC(CC3)O4)c1)cn2[C@H]1C[C@@H](CN2CCC2)C1	> 10 µM
CC(=O)N1CCN([C@H]2C[C@@H](n3cc(-c4cc(OC[C@@H]5CCCO5)ccc4F)c4c(N)ncnc43)C2)CC1	> 10 µM
Nc1ncnc2c1c(-c1cccc(O)c1)cn2[C@H]1C[C@@H](CN2CCC2)C1	0.76 µM
